Test system: HepG2 cancer cells
experimental_protocol: Anticancer activity, cell viability by CCK-8, HepG2
Type: cell-based
settings: HepG2, 10 μM, 72 hours
quantity_kind: Cell viability (% of Con. 10 μM) HepG2

Ask | So what does the record say about Cell viability (% of Con. 10 μM) HepG2 for CP(C)(=O)c1ccccc1Nc1ncc(Cl)c(Nc2ccccc2P(C)(C)=O)n1 ?
Reply | 102 % of Con.

Ask | So what does the record say about Cell viability (% of Con. 10 μM) HepG2 for CP(C)(=O)c1ccccc1Nc1nc(Nc2ccc3[nH]nc(-c4cccc(O)c4)c3c2)ncc1Cl ?
Reply | 43 % of Con.

Ask | So what does the record say about Cell viability (% of Con. 10 μM) HepG2 for CP(C)(=O)c1ccccc1Nc1nc(Nc2ccc3c(c2)CCN(C(=O)C(F)(F)F)C3)ncc1Cl ?
Reply | 37 % of Con.

Ask | So what does the record say about Cell viability (% of Con. 10 μM) HepG2 for Cc1ccc(-c2n[nH]c3ccc(Nc4ncc(Cl)c(Nc5ccccc5P(C)(C)=O)n4)cc23)cc1Cl ?
Reply | 6 % of Con.

Ask | So what does the record say about Cell viability (% of Con. 10 μM) HepG2 for CC1(C)CCC(C)(C)c2cc(Nc3ncc(Cl)c(Nc4ccccc4P(C)(C)=O)n3)ccc21 ?
Reply | 75 % of Con.

Ask | So what does the record say about Cell viability (% of Con. 10 μM) HepG2 for CC(=O)N1CC=C(c2n[nH]c3ccc(Nc4ncc(Cl)c(Nc5ccccc5P(C)(C)=O)n4)cc23)CC1 ?
Reply | 26 % of Con.

Ask | So what does the record say about Cell viability (% of Con. 10 μM) HepG2 for Cc1cc(Nc2ncc(Cl)c(Nc3ccccc3P(C)(C)=O)n2)ccn1 ?
Reply | 91 % of Con.

Ask | So what does the record say about Cell viability (% of Con. 10 μM) HepG2 for CP(C)(=O)c1ccccc1Nc1nc(Nc2ccc3c(c2)CNC3)ncc1Cl ?
Reply | 19 % of Con.

###

measured_target: human recombinant MLK3 protein (Homo sapiens, UniProt Q16584)
Sequence (Q16584 whole entry): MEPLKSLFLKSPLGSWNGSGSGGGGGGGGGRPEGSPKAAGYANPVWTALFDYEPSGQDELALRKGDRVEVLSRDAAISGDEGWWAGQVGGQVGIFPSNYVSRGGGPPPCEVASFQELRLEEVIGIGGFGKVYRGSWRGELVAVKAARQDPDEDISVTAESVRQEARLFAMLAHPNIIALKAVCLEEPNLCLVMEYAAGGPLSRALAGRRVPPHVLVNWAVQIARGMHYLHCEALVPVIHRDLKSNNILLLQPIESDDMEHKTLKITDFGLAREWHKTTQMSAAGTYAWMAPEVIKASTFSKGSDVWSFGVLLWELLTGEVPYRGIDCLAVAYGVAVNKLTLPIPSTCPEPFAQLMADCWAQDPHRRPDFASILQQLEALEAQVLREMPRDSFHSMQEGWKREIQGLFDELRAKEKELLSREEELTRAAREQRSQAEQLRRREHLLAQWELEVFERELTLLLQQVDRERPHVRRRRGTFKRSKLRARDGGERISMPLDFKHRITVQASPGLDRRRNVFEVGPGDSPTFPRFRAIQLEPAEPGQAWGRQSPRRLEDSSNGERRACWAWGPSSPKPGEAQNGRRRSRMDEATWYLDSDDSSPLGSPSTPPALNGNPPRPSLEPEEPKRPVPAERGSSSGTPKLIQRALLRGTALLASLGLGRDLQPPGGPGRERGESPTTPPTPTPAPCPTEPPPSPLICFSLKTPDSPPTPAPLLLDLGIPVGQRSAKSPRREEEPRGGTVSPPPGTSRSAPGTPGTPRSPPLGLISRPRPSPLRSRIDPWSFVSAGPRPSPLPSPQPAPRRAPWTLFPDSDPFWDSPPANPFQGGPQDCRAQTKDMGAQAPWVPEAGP
experimental_protocol: MLK3 kinase activity assay (Eurofins, gamma-33P-ATP, filtermat scintillation counting)
settings: human recombinant MLK3, 120 minutes at room temperature
Procedure: Compounds 1 to 119 synthesized in Example 1 according to the present disclosure were assayed for inhibitory activity against MLK3/LRRK2 enzymes and anticancer activity against HepG2/HS746T cancer cells, and the results are summarized in Table 1, below. Inhibitory activity against MLK3 and LRRK2 enzymes was evaluated in Eurofins. […] Values for the activity of MLK3 were expressed as % of the control. […] Values for the activity of LRRK2 were expressed as % of the control.
quantity_kind: IC50

Ask | So what does the record say about IC50 for CP(C)(=O)c1ccccc1Nc1nc(Nc2ccc3[nH]nc(-c4ccc(S(C)(=O)=O)cc4)c3c2)ncc1Cl ?
Reply | 1 to 10 nM

Ask | So what does the record say about IC50 for Cn1cc(-c2n[nH]c3ccc(Nc4ncc(Cl)c(Nc5ccccc5P(C)(C)=O)n4)cc23)cn1 ?
Reply | 1 to 10 nM

Ask | So what does the record say about IC50 for CP(C)(=O)c1ccccc1Nc1nc(Nc2ccc3nc(S)sc3c2)ncc1Cl ?
Reply | 10 to 100 nM

Ask | So what does the record say about IC50 for CC1NCCc2ccc(Nc3ncc(Cl)c(Nc4ccccc4P(C)(C)=O)n3)cc21 (stereo not shown) ?
Reply | 1 to 10 nM

Ask | So what does the record say about IC50 for CC(C)n1cc(-c2n[nH]c3ccc(Nc4ncc(Cl)c(Nc5ccccc5P(C)(C)=O)n4)cc23)cn1 ?
Reply | 1 to 10 nM

Ask | So what does the record say about IC50 for CC1(C)NCCc2ccc(Nc3ncc(Cl)c(Nc4ccccc4P(C)(C)=O)n3)cc21 ?
Reply | 1 to 10 nM

Ask | So what does the record say about IC50 for CC(C)S(=O)(=O)c1ccccc1Nc1nc(Nc2cc(Cl)cc(Cl)c2)ncc1Cl ?
Reply | 100 to 1000 nM

Ask | So what does the record say about IC50 for CP(C)(=O)c1ccccc1Nc1nc(Nc2ccc3[nH]nc(-c4cccc(C#N)c4)c3c2)ncc1Cl ?
Reply | 1 to 10 nM

Ask | So what does the record say about IC50 for COc1ccc(-c2n[nH]c3ccc(Nc4ncc(Cl)c(Nc5ccccc5P(C)(C)=O)n4)cc23)cc1F ?
Reply | 1 to 10 nM

Ask | So what does the record say about IC50 for CP(C)(=O)c1ccccc1Nc1ncc(Cl)c(Nc2ccccc2P(C)(C)=O)n1 ?
Reply | > 1000 nM

The reported numbers originate from patent US20240270698A2.
